- Tested on: Fibroblast
- protocol-description: Multiplex assay against human fibroblast
- Assay type: toxicity, cell-based
- condition-details: 12 h, 1 µM, compound concentration 1 uM, replicate 2
Label 1 for high-side Population Mitotic Cells (%) (at or above 40%) and -1 for low-side Population Mitotic Cells (%) (below it).

Examples from the recorded data:
## Input Determine whether this compound has Population Mitotic Cells (%) no lower than 40%: Cl.N#Cc1ccc2[nH]cc(CCCCN3CCN(c4ccc5oc(C(N)=O)cc5c4)CC3)c2c1 [VILAZODONE HYDROCHLORIDE]
## Output 1

## Input Determine whether this compound has Population Mitotic Cells (%) no lower than 40%: `CN(C)CC#Cc1ccc(OCCCc2sc(N3CCc4cccc(C(=O)Nc5nc6ccccc6s5)c4C3)nc2C(=O)O)c(F)c1`
## Output -1

## Input Determine whether this compound has Population Mitotic Cells (%) no lower than 40%: `Cc1nc(-c2ccc(-c3ccc(C(=O)N4CCc5cc6c(cc54)C4(CCN(C)CC4)CO6)cc3)c(C)c2)no1`
## Output 1

## Input Determine whether this compound has Population Mitotic Cells (%) no lower than 40%: CN1CCC[C@@H]1CCO[C@](C)(c1ccccc1)c1ccc(Cl)cc1.O=C(O)/C=C/C(=O)O [CLEMASTINE FUMARATE]
## Output 1

## Input Determine whether this compound has Population Mitotic Cells (%) no lower than 40%: `CNc1nc(NCc2ccc(NS(C)(=O)=O)cc2Cl)cc(-c2ccccn2)n1`
## Output 1

## Input Determine whether this compound has Population Mitotic Cells (%) no lower than 40%: `Cc1nc(-c2cn3c(n2)-c2ccc(-c4cnn(C(C)(C)C(N)=O)c4)cc2OCC3)n(C(C)C)n1`
## Output -1

Continuing:
## Input Determine whether this compound has Population Mitotic Cells (%) no lower than 40%: CC(C)NCC(O)COc1ccc(CCOCC2CC2)cc1.Cl (stereo unspecified) [BETAXOLOL HYDROCHLORIDE]
## Output -1

## Input Determine whether this compound has Population Mitotic Cells (%) no lower than 40%: `Cc1csc2c(N[C@@H](C)CN3CCN(S(=O)(=O)c4ccc(Cl)c(Cl)c4)CC3)ncnc12`
## Output 1

## Input Determine whether this compound has Population Mitotic Cells (%) no lower than 40%: `c1cn2cc(-c3ccc4cn[nH]c4c3)nc(Nc3ccc(N4CCOCC4)cc3)c2n1`
## Output 1

## Input Determine whether this compound has Population Mitotic Cells (%) no lower than 40%: `Cc1[nH]c(/C=C2\C(=O)Nc3ccc(S(=O)(=O)N(C)c4cccc(Cl)c4)cc32)c(C)c1C(=O)N1CCN(C)CC1`
## Output -1

## Input Determine whether this compound has Population Mitotic Cells (%) no lower than 40%: CN1CCCC(n2nc(Cc3ccc(Cl)cc3)c3ccccc3c2=O)CC1.Cl (stereo unspecified) [AZELASTINE HYDROCHLORIDE]
## Output 1

## Input Determine whether this compound has Population Mitotic Cells (%) no lower than 40%: `C=CC(=O)Nc1cccc(C(=O)Nc2ccc(Nc3cc(-c4[nH]c(SC)nc4C)ccn3)cc2)c1`
## Output 1

## Input Determine whether this compound has Population Mitotic Cells (%) no lower than 40%: C=CC(=O)Nc1cc2c(Nc3ccc(F)c(Cl)c3)ncnc2cc1OCCCN1CCOCC1.Cl.Cl [CANERTINIB DIHYDROCHLORIDE]
## Output -1

## Input Determine whether this compound has Population Mitotic Cells (%) no lower than 40%: O=C1NCN(c2ccccc2)C12CCN(CCCOc1ccc(F)cc1)CC2 [SPIRAMIDE]
## Output 1
